- Test system: Haemophilus influenzae
- testName: Minimum inhibitory concentration against ampicillin-reisitant Haemophilus influenzae UC30063
- Format: functional
- assaySetup: Haemophilus influenzae; read-out: MIC
observable: log10 of MIC (log10 of the value in µg/mL)

>  <recordSmiles>
CC(=O)NC[C@H]1CN(c2cc(F)c(N3C[C@@H]4[C@H](C3)[C@H]4NC(=O)CO)c(F)c2)C(=O)O1

>  <observable>
log10 of MIC

>  <recordedNumber>
1.81

$$$$
>  <recordSmiles>
N[C@@H]1[C@H]2CN(c3c(F)cc(N4C[C@H](CNC(=O)C(F)F)OC4=O)cc3F)C[C@@H]12

>  <observable>
log10 of MIC

>  <recordedNumber>
0.90

$$$$
>  <recordSmiles>
CCC(=O)NC[C@H]1CN(c2cc(F)c(N3C[C@@H]4[C@H](C3)[C@H]4C(=O)O)c(F)c2)C(=O)O1

>  <observable>
log10 of MIC

>  <recordedNumber>
0.90

$$$$
>  <recordSmiles>
O=C(NC[C@H]1CN(c2cc(F)c(N3C[C@@H]4[C@H](C3)[C@H]4C(=O)O)c(F)c2)C(=O)O1)C(Cl)Cl

>  <observable>
log10 of MIC

>  <recordedNumber>
0.60

$$$$
>  <recordSmiles>
CC(=O)NC[C@H]1CN(c2cc(F)c(N3C[C@H]4C[C@H]4C3)c(F)c2)C(=O)O1

>  <observable>
log10 of MIC

>  <recordedNumber>
1.81

$$$$
>  <recordSmiles>
N[C@@H]1[C@H]2CN(c3c(F)cc(N4C[C@H](CNC(=O)C(Cl)Cl)OC4=O)cc3F)C[C@@H]12

>  <observable>
log10 of MIC

>  <recordedNumber>
0.60

$$$$
>  <recordSmiles>
CC(=O)NC[C@H]1CN(c2cc(F)c(N3C[C@@H]4[C@H](C3)[C@H]4NS(C)(=O)=O)c(F)c2)C(=O)O1

>  <observable>
log10 of MIC

>  <recordedNumber>
1.51

$$$$
>  <recordSmiles>
CC(=O)NC[C@H]1CN(c2ccc(N3C[C@@H]4[C@H](C3)[C@H]4C(=O)O)c(F)c2)C(=O)O1

>  <observable>
log10 of MIC

>  <recordedNumber>
1.20

$$$$
>  <recordSmiles>
CC(=O)NC[C@H]1CN(c2cc(F)c(N3C[C@@H]4[C@@H](O)[C@@H]4C3)c(F)c2)C(=O)O1

>  <observable>
log10 of MIC

>  <recordedNumber>
1.20

$$$$

###

- Test system: Haemophilus influenzae
- testName: Minimum inhibitory concentration against ampicillin-reisitant Haemophilus influenzae UC30063
- Type: functional
- assaySetup: Haemophilus influenzae; read-out: MIC
Listed here: items and their measured MIC.

>  <recordSmiles>
CC(=O)NC[C@H]1CN(c2cc(F)c(N3C[C@@H]4[C@H](C3)[C@H]4C(N)=O)c(F)c2)C(=O)O1

>  <MIC>
32 µg/mL

$$$$
>  <recordSmiles>
CC(=O)NC[C@H]1CN(c2cc(F)c(N3C[C@@H]4[C@H](C3)[C@H]4C(=O)Nc3nccs3)c(F)c2)C(=O)O1

>  <MIC>
> 64 µg/mL

$$$$
>  <recordSmiles>
O=C(NC[C@H]1CN(c2cc(F)c(N3C[C@@H]4[C@H](C3)[C@H]4C(=O)O)c(F)c2)C(=O)O1)C(F)F

>  <MIC>
4 µg/mL

$$$$
>  <recordSmiles>
CC(=O)NC[C@H]1CN(c2cc(F)c(N3C[C@@H]4[C@H](C3)[C@H]4C(=O)Nc3ccc4c(c3)OCO4)c(F)c2)C(=O)O1

>  <MIC>
> 64 µg/mL

$$$$
>  <recordSmiles>
CC(=O)NC[C@H]1CN(c2cc(F)c(N3C[C@@H]4[C@H](C3)[C@H]4C(=O)N(C)C)c(F)c2)C(=O)O1

>  <MIC>
64 µg/mL

$$$$
>  <recordSmiles>
CC(=O)NC[C@H]1CN(c2cc(F)c(N3C[C@@H]4[C@H](C3)[C@H]4NC(=O)Nc3ccccc3)c(F)c2)C(=O)O1

>  <MIC>
> 64 µg/mL

$$$$
>  <recordSmiles>
CC(=O)NC[C@H]1CN(c2cc(F)c(N3C[C@@H]4[C@H](C3)[C@H]4C(=O)NOCc3ccccc3)c(F)c2)C(=O)O1

>  <MIC>
> 64 µg/mL

$$$$

###

- Tested on: Haemophilus influenzae
- testName: Minimum inhibitory concentration against ampicillin-reisitant Haemophilus influenzae UC30063
- Type: functional
- assaySetup: Haemophilus influenzae; read-out: MIC
Listed here: items and their measured MIC.

>  <recordSmiles>
CC(=O)NC[C@H]1CN(c2cc(F)c(N3C[C@@H]4[C@H](C3)[C@H]4NC=O)c(F)c2)C(=O)O1

>  <tgt>
Haemophilus influenzae

>  <outputUnit>
µg/mL

>  <inequalityOperator>
=

>  <MIC>
32

$$$$
>  <recordSmiles>
COc1ccc(NC(=O)[C@H]2[C@@H]3CN(c4c(F)cc(N5C[C@H](CNC(C)=O)OC5=O)cc4F)C[C@@H]32)cn1

>  <tgt>
Haemophilus influenzae

>  <outputUnit>
µg/mL

>  <inequalityOperator>
>

>  <MIC>
64

$$$$
>  <recordSmiles>
CC(=O)NC[C@H]1CN(c2cc(F)c(N3C[C@@H]4[C@H](C3)[C@H]4C(=O)NO)c(F)c2)C(=O)O1

>  <tgt>
Haemophilus influenzae

>  <outputUnit>
µg/mL

>  <inequalityOperator>
=

>  <MIC>
32

$$$$
>  <recordSmiles>
CNC(=O)[C@H]1[C@@H]2CN(c3c(F)cc(N4C[C@H](CNC(C)=O)OC4=O)cc3F)C[C@@H]21

>  <tgt>
Haemophilus influenzae

>  <outputUnit>
µg/mL

>  <inequalityOperator>
=

>  <MIC>
16

$$$$
>  <recordSmiles>
CC(=O)NC[C@H]1CN(c2cc(F)c(N3C[C@@H]4[C@H](C3)[C@H]4C(=O)NCc3ccco3)c(F)c2)C(=O)O1

>  <tgt>
Haemophilus influenzae

>  <outputUnit>
µg/mL

>  <inequalityOperator>
>

>  <MIC>
64

$$$$
>  <recordSmiles>
CC(=O)NC[C@H]1CN(c2ccc(N3C[C@H]4C[C@H]4C3)c(F)c2)C(=O)O1

>  <tgt>
Haemophilus influenzae

>  <outputUnit>
µg/mL

>  <inequalityOperator>
=

>  <MIC>
32

$$$$
>  <recordSmiles>
CC(=O)NC[C@H]1CN(c2cc(F)c(N3C[C@@H]4[C@H](C3)[C@H]4NC(C)=O)c(F)c2)C(=O)O1

>  <tgt>
Haemophilus influenzae

>  <outputUnit>
µg/mL

>  <inequalityOperator>
=

>  <MIC>
64

$$$$
